experimentalSystem: AAV9 viral particles (adeno-associated virus 9)
experimentNotes: SPR (Biacore), polypeptide amine-coupled to CM5, AAV9 analyte; response normalized to SEQ ID NO:80
quantityKind: Normalized AAV9 binding capacity (%)

1. vh252 (SEQ ID NO:94) (VHH) VHH: QVQLQQSGGGSVQAGGSLKLSCTISGRTLSDYTMGWFRQRPGKEREFVAAISWSGAYTKYADSVKGRFTISRDNAKNTVYLQMNSLKPEDTAVYYCAAGPTGLLSKKATPADYDYWGQGTQVTVSS ... 92
2. vh253 (SEQ ID NO:95) (VHH) VHH: QVQLQQSGGGSVQAGGSLSLSCTISGRTLSDYTMGWFRQRPGKEREFVAAISWSGAYTKYADSVKGRFTISRDNAKNTVYLQMNSLKPEDTAVYYCAAGPTGLLSKKATPADYDYWGQGTQVTVSS ... 86
3. vh254 (SEQ ID NO:97) (VHH) VHH: QVQLQQSGGGSVQAGGSLRLSCSISGRTLSDYTMGWFRQRPGKEREFVAAISWSGAYTKYADSVKGRFTISRDNAKNTVYLQMNSLKPEDTAVYYCAAGPTGLLSKKATPADYDYWGQGTQVTVSS ... 73
